Reference source: paper PMC6364417

- System: A375 cells (parental)
- Test Description: Kinase inhibitor library screening, PrestoBlue cell viability, 1 or 10 μM, 72 h
- Condition Label: A375 Parental; 1μΜ; 72 h
Counter-ions that a name gives are not always drawn.
Measure: cell viability (kinase inhibitor library screening) (%)
Please respond with the number in % and leave the unit unwritten.

Take a look at these entries with their results.
- CCc1cc2c(cc1N1CCC(N3CCOCC3)CC1)C(C)(C)c1[nH]c3cc(C#N)ccc3c1C2=O: 106.9
- Cc1ncc(-c2ccnc(Nc3ccc(S(C)(=O)=O)cc3)n2)n1C(C)C: 106.4
- CNC(=O)c1nn(C)c2c1C(C)(C)Cc1cnc(Nc3ccc(N4CCN(C)CC4)cc3)nc1-2: 56.7
- O=C1NC(=O)[C@@H](c2cn3c4c(cccc24)CCC3)[C@@H]1c1c[nH]c2ccccc12 [ARQ 197 (Tivantinib)]: 26.4
- S=C(NCc1ccc2c(c1)OCO2)N1CCN(c2ncnc3c2oc2ccccc23)CC1: 97.4
- CCn1cc(-c2ccnc3[nH]c(-c4cccc(CN(C)C)c4)cc23)c(-c2ccc(NC(=O)N(C)C)cc2)n1: 53.8

In: Identify cell viability (kinase inhibitor library screening) associated with the compound `COc1cc(N2CCC(N3CCN(C)CC3)CC2)ccc1Nc1ncc(Cl)c(Nc2ccccc2S(=O)(=O)C(C)C)n1`
Out: 76.3

In: Tell us which cell viability (kinase inhibitor library screening) value is on record for `Cc1csc(-c2nnc(Nc3ccc(Oc4ncccc4-c4ccnc(N)n4)cc3)c3ccccc23)c1`
Out: 46.4

In: Fill in reported cell viability (kinase inhibitor library screening) for this entry: `CN(C[C@@H]1COCCO1)S(=O)(=O)Nc1ccc2ccc3ncc(-c4cnn(C)c4)cc3c(=O)c2c1`
Out: 106.3

In: Indicate the recorded cell viability (kinase inhibitor library screening) value for this compound: CN1CC[C@H](c2c(O)cc(O)c3c(=O)cc(-c4ccccc4Cl)oc23)[C@H](O)C1 [Flavopiridol hydrochloride]
Out: 7.0

In: For `CCOc1ccn(-c2ccc(F)cc2)c(=O)c1C(=O)Nc1ccc(Oc2ccnc(N)c2Cl)c(F)c1` , write its cell viability (kinase inhibitor library screening).
Out: 99.9

In: Answer with reported cell viability (kinase inhibitor library screening) of `N#Cc1c(O)c2c(-c3ccc(-c4ccccc4O)cc3)csc2[nH]c1=O`
Out: 105.0

In: Please list cell viability (kinase inhibitor library screening) recorded for the compound `Cc1[nH]nc2ccc(-c3cncc(OC[C@@H](N)Cc4ccccc4)c3)cc12`
Out: 82.1

In: Answer with the recorded cell viability (kinase inhibitor library screening) of `O=C(Nc1ccc(OC(F)(F)F)cc1)c1sccc1NCc1ccnc2ccccc12` only.
Out: 97.9

In: Please list cell viability (kinase inhibitor library screening) recorded for the compound `Cc1cc(CN2CCN(c3c(Br)cnc4nc(-c5ccc(N6CCN(C)CC6)cc5)[nH]c34)CC2)no1`
Out: 56.7

In: Output measured cell viability (kinase inhibitor library screening) for this item: `O=c1cc(-c2cccc3c2Sc2ccccc2S3)oc(N2CCOCC2)c1`
Out: 105.8
